# Test system: ryegrass, Italian (Italian ryegrass, Lolium multiflorum)
# Assay protocol: Test A preemergence ryegrass, Italian
# Assay type: in vivo
# Condition label: Lolium multiflorum, pre-emergence, 240 h, 125 g ai/ha, 0 to 100 scale, 0 no effect, 100 complete control, read-out: Ryegrass, Italian plant response rating
Attribute measured: pest or weed control at 125 g/ha (%)

Molecule: O=C1NCCC(c2cccc(C(F)F)c2)C1C(=O)Nc1cccc(F)c1F (stereo not shown)
Value reported: 0

Molecule: CN1CC[C@H](c2ccc(F)cc2)[C@@H](C(=O)Nc2cccc(F)c2F)C1=O
Value reported: 20

Molecule: O=C1NCCC(c2cccc(C(F)(F)F)c2)C1C(=O)Nc1ccc(F)c(F)c1F (stereo not shown)
Value reported: 20

Molecule: O=C1NCC[C@H](c2cccc(C(F)(F)F)c2)[C@H]1C(=O)Nc1cccc(F)c1F
Value reported: 0

Molecule: CN1CC[C@H](c2ccc(F)cc2)[C@@H](C(=O)Nc2ccccc2C(F)(F)F)C1=O
Value reported: 0

Molecule: O=C1NCCC(c2ccc(C(F)(F)F)cc2)C1C(=O)Nc1ccccc1Cl (stereo not shown)
Value reported: 0

Molecule: O=C1NCCC(c2ccc(C(F)(F)F)cc2)C1C(=O)Nc1ccccc1F (stereo not shown)
Value reported: 0

Molecule: O=C1NCC[C@H](c2cccc(Cl)c2)[C@H]1C(=O)Nc1cccc(F)c1F
Value reported: 40

Molecule: O=C1NCC[C@H](c2ccc(C(F)(F)F)cc2)[C@H]1C(=O)Nc1cccc(F)c1F
Value reported: 20

Molecule: O=C1NCC[C@H](c2ccc(F)cc2)[C@H]1C(=O)Nc1ccccc1C(F)(F)F
Value reported: 0

Molecule: O=C1NCC[C@H](c2cccc(C(F)(F)F)c2)[C@H]1C(=O)Nc1cccc(Cl)c1F
Value reported: 0

Molecule: O=C1NCCC(c2cccc(Cl)c2)C1C(=O)Nc1cccc(F)c1F (stereo not shown)
Value reported: 0

Molecule: O=C1NCCC(c2ccc(C(F)(F)F)cc2)C1C(=O)Nc1cccc(F)c1F (stereo not shown)
Value reported: 0

* * *

Quick list: Plant response rating, Corn per entry.
# Test system: corn (Zea mays)
# Assay protocol: Test A postemergence corn
# Type: in vivo
# Condition label: 500 g ai/ha, 0 to 100 scale, 0 is no effect, 100 is complete control
Attribute measured: Plant response rating, Corn

Compound: O=C1NCCC(c2ccccc2C(F)(F)F)C1C(=O)Nc1ccccc1C(F)(F)F (racemic)
Attribute measured: Plant response rating, Corn
Value reported: 0
//
Compound: O=C1NCCC(c2ccc(F)c(F)c2)C1C(=O)Nc1ccccc1F (racemic)
Attribute measured: Plant response rating, Corn
Value reported: 0
//
Compound: Cc1c(F)cccc1NC(=O)C1C(=O)NCCC1c1cccc(C(F)(F)F)c1 (racemic)
Attribute measured: Plant response rating, Corn
Value reported: 40
//
Compound: O=C(Nc1ccccc1C(F)(F)F)C1C(=O)N(C2CC2)CCC1c1ccc(F)cc1 (stereo not shown)
Attribute measured: Plant response rating, Corn
Value reported: 0

* * *

# Test system: barnyardgrass (Echinochloa crus-galli)
# Assay protocol: Test C flooded paddy test barnyardgrass
# Format: in vivo
# Condition label: Table C, Flood, 125 g ai/ha, scale 0 to 100
# Source text: Plant species in the flooded paddy test consisted of rice (Oryza sativa), sedge, umbrella (small-flower umbrella sedge, Cyperus difformis), ducksalad (Heteranthera limosa), and barnyardgrass (Echinochloa crus-galli) grown to the 2-leaf stage for testing. […] Treated plants and controls were maintained in a greenhouse for 13 to 15 d, after which time all species were compared to controls and visually evaluated. […]
Attribute measured: Plant response rating

Molecule: O=C1NCCC(c2cccc(C(F)(F)F)c2)C1C(=O)Nc1ccc(F)c(F)c1F (racemic)
Value reported: 70
//
Molecule: O=C1NCCC(c2cccc(C(F)(F)F)c2)C1C(=O)Nc1cccc(Cl)c1F (racemic)
Value reported: 0
//
Molecule: O=C1NCCC(c2cccc(C(F)(F)F)c2)C1C(=O)Nc1cccc(F)c1Cl (racemic)
Value reported: 0
//
Molecule: O=C1NCCC(c2ccc(C(F)(F)F)cc2)C1C(=O)Nc1cccc(F)c1F (centres unmarked)
Value reported: 10
//
Molecule: O=C1NCCC(c2ccc(C(F)(F)F)cc2)C1C(=O)Nc1ccccc1C(F)(F)F (racemic)
Value reported: 0
